What protein stability index was measured for each of the following?
method_notes: protein stability index of a GFP-peptide fusion (yeast GPS) (PSI 1-4); higher = more stable; sorted into four equal gates, so the index is relative within each strain
recorded_conditions: pdr5∆
Numbers only.

VAKTAPNSNKTHTEQNN [SNF2]
3.07
LLFWTDPRNLVNQTGST [YCG1]
2.66
EPIEESSQNNSELAPIE [IRR1]
2.9
WGYQMVWAPTQKCFKLT [POP1]
2.62
RSKFLSTVAKFLARVIK [IRR1]
2
PNRITLTDHRKETWLHE [SRB8]
3.03
GLTTVWLLSALGNSIVK [REC8]
2.31
HIRRMVPLAMGIVSVSD [RPN1]
1.61

The following sequences each have a reported value; give each one's protein stability index.
1. HGGGNHQHIGKASTISR [RPL2A]
2. RFPTKFVTQFRHLRRTG [RET1]
3. ILGKNFDSVIVENLTVA [SMC1]
4. KIIPKDISATQLPKQLW [ITC1]
5. ATRHVLMRQGVLGIKVK [RPS3]

Result:
1. 3.31
2. 1.73
3. 2.15
4. 2.43
5. 2.27

The following sequences each have a reported value; give each one's protein stability index.
1. LPHSPLWELALAFIPNI [YML031W/NDC1]
2. IDEVFSWYLNTFDGIRM [GRR1]
3. FTLWWSPTINRANVYVG [PRP8]

Result:
1.25
1.83
1.88

The following sequences each have a reported value; give each one's protein stability index.
1. KDSYVRIANIEQNHLDN [YDL088C/ASM4]
2. TSVIQDLSEKILNDIET [BRR2]
3. WRSKRIEQLFPVRPVRV [RPC53]
4. ATPPLKRFKDMEYLSGG [SMC1]
5. SSAHLIRINDEPILGQI [YML103C/NUP188]
6. FGAKSDENKAGATSKPA [YJL041W/NSP1]
7. VDAYRRLENKLSEIESL [SRP68]

Result:
[3.43, 3.3, 3.11, 2.89, 2.9, 3.23, 1.48]
